target: monoclonal antibody DD-1; assay: Competition ELISA with monoclonal antibody DD-1; type: binding, Biozzi mice; conditions: competitor vs monoclonal antibody DD-1; plate coated with A-triCDD-RSA
property-name: I50 (inhibits antibody binding by 50%)

| compound | I50 (inhibits antibody binding by 50%) |
| --- | --- |
| Clc1ccc(-c2ccc(Cl)c(Cl)c2)cc1Cl | > 200 ng |
| O=C1C2(Cl)C3(Cl)C4(Cl)C(Cl)(Cl)C5(Cl)C3(Cl)C1(Cl)C5(Cl)C24Cl (stereo not drawn) | > 2000 ng |

For the compound `Clc1ccc(Cl)c(-c2c(Cl)c(Cl)c(Cl)c(Cl)c2Cl)c1` , give its reported I50 (inhibits antibody binding by 50%).
> 200 ng
